Tested On: HIV-1 Env of isolate MGRM-G-011 (subtype G), on pseudovirus (HIV-1)
Assay Summary: cell-based or functional assay
Value Type: IC50 (µg/mL), neutralization of pseudovirus

For the binder PGT-135 (antibody, V domains shown) VH: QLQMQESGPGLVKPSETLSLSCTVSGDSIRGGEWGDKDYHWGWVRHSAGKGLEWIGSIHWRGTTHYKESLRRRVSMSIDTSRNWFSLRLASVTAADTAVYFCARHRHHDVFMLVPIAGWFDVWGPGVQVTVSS VL: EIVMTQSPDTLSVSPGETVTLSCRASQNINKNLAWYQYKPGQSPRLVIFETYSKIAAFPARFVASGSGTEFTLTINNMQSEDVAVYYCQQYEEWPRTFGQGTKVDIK , give its reported IC50 (µg/mL), neutralization of pseudovirus.
> 50 µg/mL
